Cited source for all entries: PubChem BioAssay (NCATS)

- Tested on: CASKI
- Assay summary: Primary qHTS to identify gynecologic anti-cancer compounds using libraries of approved drugs and bioactive compounds (AID 1345084); also: % is scaled to controls: 0 for no effect and ±100 for the full control effect; nearly all actives have a fitted effect of over 55% in size
- Assay context: Gynecologic cancer cell panel viability, ATPlite luminescence, 48 h; series mostly up to 57.5 µM
Inconclusive results are not listed. Active and inactive are the calls of the source. Calls follow the shape of the dose curve; as a rule, active = well fitted cell-killing curve with a large enough effect; inconclusive = small, poorly fitted or top-dose-only effect, or effect the other way; inactive = flat fitted curve, though single readings scatter.

{"Compound": "O=C(Nc1ncc(SCCN2CCCC2)s1)C1(c2ccc(S(=O)(=O)C3CC3)cc2)CC1C1CCCCC1 (stereo not drawn)", "outcome": "inactive"}
{"Compound": "COCCOCCOc1ccc(C2=N[C@@](C)(C(=O)O)CS2)c(O)c1", "outcome": "inactive"}
{"Compound": "CCS(=O)(=O)N(Cc1cccnc1)c1cccc(-c2ccc(C#N)cc2)c1", "outcome": "inactive"}

###

- Test system: astro
- Assay summary: Drug repurposing screens with cells derived from glioblastoma tumor samples (AID 1345199); also: nearly all actives have a fitted effect of over 40% in size
- Assay context: viability, ATP luminescence, 48 h; series mostly up to 45.9 µM
Inconclusive results are not listed. Active and inactive are the calls of the source. Calls follow the shape of the dose curve; as a rule, active = well fitted inhibition curve with a large enough effect; inconclusive = small, poorly fitted or top-dose-only effect; inactive = flat fitted curve, though single readings scatter.
Possible outcomes: 1.0 for active, 0.0 for inactive

{"Given smiles": "CN1CCN(CCC=C2c3ccccc3Sc3ccc(S(=O)(=O)N(C)C)cc32)CC1", "System tested": "astro", "Class": 1.0}
{"Given smiles": "C=C1C(=O)O[C@H]2[C@H]1CC/C(C)=C\\CC[C@@]1(C)O[C@@H]21", "System tested": "astro", "Class": 1.0}
{"Given smiles": "CC1(C)N=C(N)N=C(N)N1c1ccc(Cl)cc1", "System tested": "astro", "Class": 0.0}
{"Given smiles": "CCOC(=O)CN[C@@H](C(=O)N1CC[C@H]1C(=O)NCc1ccc(/C(N)=N/O)cc1)C1CCCCC1", "System tested": "astro", "Class": 0.0}

###

- Assay summary: P-glycoprotein substrates identified in KB-3-1 adenocarcinoma cell line, qHTS therapeutic library screen (AID 1346986); also: nearly all actives have a fitted effect of over 60% in size;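 also: potency is read from the fitted curve at half-maximal effect; potency is for cytotoxicity meaning loss of cell viability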
- Assay context: KB-3-1 parental cells viability, CellTiter-Glo, 72 h; series mostly up to 44.5 µM
Inconclusive results are not listed. The source made the active and inactive calls. Calls come from the whole dose curve; as a rule, active = well fitted inhibition curve with a large enough effect; inconclusive = small, poorly fitted or top-dose-only effect; inactive = no such curve, though single readings can be large or run the other way.

{"Given smiles": "Cn1cc(C2=C(c3cn(CCCSC(=N)N)c4ccccc34)C(=O)NC2=O)c2ccccc21", "Potency": "5.17 µM (active)"}
{"Given smiles": "CN(Cc1nccs1)c1ncnc2ccc(-c3ccc4c(c3)OCO4)cc12", "Potency": "inactive"}
{"Given smiles": "O=C(O)c1c[nH]c2c(ccc3ccccc32)c1=O", "Potency": "inactive"}
{"Given smiles": "C=C(C)[C@@H]1CCC2=CC(=O)C[C@@H](C)[C@]2(C)C1", "Potency": "inactive"}
{"Given smiles": "COc1ccc(C(=O)Nc2sc3c(c2C(N)=O)CCCC3)cc1OC", "Potency": "inactive"}
{"Given smiles": "COC[C@H](C)Oc1cc(O[C@@H](C)Cc2ccccc2)cc(C(=O)Nc2ccc(C(=O)O)cn2)c1", "Potency": "inactive"}

###

- Assay summary: qHTS of Trypanosoma Brucei Inhibitors: LOPAC Validation (AID 624147); also: 0% is about no effect
- Assay context: purified enzyme assay, luminescence, 45 min; series mostly up to 57.5 µM
Records with an inconclusive call do not appear. The source made the active and inactive calls. Calls come from the whole dose curve; as a rule, active = well fitted inhibition curve with a large enough effect; inconclusive = small, poorly fitted or top-dose-only effect; inactive = flat fitted curve, though single readings scatter.
Measure: outcome

{"Given smiles": "O=Nc1c(-c2c(O)[nH]c3ccccc23)[nH]c2ccccc12", "Result": "inactive"}
{"Given smiles": "Cc1cccc(/C=C/c2ccccc2)n1", "Result": "inactive"}
{"Given smiles": "O=C1c2ccccc2C(=O)c2c(NCCc3ccc(O)cc3)ccc(NCCc3ccc(O)cc3)c21", "Result": "inactive"}
{"Given smiles": "CC[N+](CC)(CC)CC", "Result": "inactive"}

###

- Assay summary: qHTS Assay for Lipid Storage Modulators (AID 1519); also: % is scaled to controls: 0 for no effect and ±100 for the full control effect
- Assay context: Drosophila S3 cells, BODIPY lipid droplet/cell ratio, laser cytometry; at 25.7 µM (top of the series); cells loaded with oleic acid
Records with an inconclusive call do not appear.
Recorded measurements of activity change, negative = inhibition, one per entry

{"Compound": "CC(C)NC[C@@H](O)COc1ccc(COCCOC(C)C)cc1", "activity change, negative = inhibition [%]": -1.04}
{"Compound": "CN(C)C/C=C(\\c1ccc(Br)cc1)c1cccnc1", "activity change, negative = inhibition [%]": -2.94}
{"Compound": "CNCC[C@H](Oc1ccccc1OC)c1ccccc1", "activity change, negative = inhibition [%]": -2.76}
{"Compound": "C[C@@H](CCc1ccc(O)cc1)NCCc1ccc(O)c(O)c1", "activity change, negative = inhibition [%]": 0.472}
{"Compound": "CC(C)NC[C@H](O)c1ccc2ccccc2c1", "activity change, negative = inhibition [%]": -2.39}
{"Compound": "C[C@H](N=C(NC#N)Nc1ccncc1)C(C)(C)C", "activity change, negative = inhibition [%]": -0.699}
{"Compound": "CO[C@@]12C[C@@H](COC(=O)c3cncc(Br)c3)CN(C)[C@H]1Cc1cn(C)c3cccc2c13", "activity change, negative = inhibition [%]": -0.393}
{"Compound": "CCN(Cc1ccncc1)C(=O)[C@@H](CO)c1ccccc1", "activity change, negative = inhibition [%]": -4.57}
{"Compound": "CN(C)CCCSC(=N)N", "activity change, negative = inhibition [%]": -2.91}
{"Compound": "O=C(NCCNC[C@@H](O)COc1ccc(O)cc1)N1CCOCC1", "activity change, negative = inhibition [%]": -1.5}
{"Compound": "CC(C)[N+]1(C)[C@@H]2CC[C@H]1CC(OC(=O)[C@@H](CO)c1ccccc1)C2 (stereo partly drawn)", "activity change, negative = inhibition [%]": 1.72}
{"Compound": "O=C1N=C(O)CN1/N=C\\c1ccc(-c2ccc([N+](=O)[O-])cc2)o1", "activity change, negative = inhibition [%]": 3.41}
{"Compound": "COc1cc(-c2ccc(N=Nc3ccc4c(S(=O)(=O)O)cc(S(=O)(=O)O)c(N)c4c3O)c(OC)c2)ccc1N=Nc1ccc2c(S(=O)(=O)O)cc(S(=O)(=O)O)c(N)c2c1O", "activity change, negative = inhibition [%]": 3.4}

###

- Assay summary: Primary fluorescence-based thiol-reactive (MSTI) qHTS assay for identification of artifact compounds. (AID 1845221);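 also: thiol-reactive compounds lower the probe fluorescence signal; nearly all actives have a fitted effect of over 65% in size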
- Assay context: MSTI thiol-reactivity probe, 1 h; series mostly up to 53.8 µM
Inconclusive results are not listed. Activity calls are given as the source filed them. Calls follow the shape of the dose curve; as a rule, active = well fitted inhibition curve with a large enough effect; inconclusive = small, poorly fitted or top-dose-only effect; inactive = no such curve, though single readings can be large or run the other way.

{"Compound": "CN1CCN(C(=O)c2ccc(Nc3nccc(-c4cccs4)n3)cc2Cl)CC1", "outcome": "inactive"}
{"Compound": "COc1ccc(C2(CNC(=O)[C@](C)(Cc3c[nH]c4ccccc34)NC(=O)Nc3ccc([N+](=O)[O-])cc3)CCCCC2)nc1", "outcome": "inactive"}
{"Compound": "Cn1cnc(-c2nccc3c(=O)[nH]c(OCCCC(F)(F)F)nc23)c1", "outcome": "inactive"}
{"Compound": "COCCNCc1ccc(-c2cc3nccc(Oc4ccc(NC(=S)NC(=O)Cc5ccc(F)cc5)cc4F)c3s2)nc1", "outcome": "inactive"}
{"Compound": "Cc1ccc(C2(COC(=O)C(C)C)CO2)c(OC(=O)C(C)C)c1 (centres undefined)", "outcome": "inactive"}
{"Compound": "C[C@H](NC(=O)C(C)(C)Oc1ccc(C(F)(F)F)cn1)[C@@H](Cc1ccc(Cl)cc1)c1cccc(C#N)c1", "outcome": "inactive"}
{"Compound": "CCCCc1nc(Cl)c(CO)n1Cc1ccc(-c2ccccc2-c2nnn[nH]2)cc1", "outcome": "inactive"}
{"Compound": "CCOC(=O)c1cnn(-c2ccc(NC(=O)C(Cl)=C(Cl)Cl)cc2)c1C(F)(F)F", "outcome": "inactive"}
{"Compound": "CCS(=O)(=O)N(Cc1cccnc1)c1cccc(-c2ccc(C#N)cc2)c1", "outcome": "inactive"}

###

- Assay summary: NFAT Signaling Pathway (AID 444);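 also: carbachol stimulus at about its EC50 of 1 µM final; % is scaled to controls: 0 for no effect and ±100 for the full control effect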
- Assay context: Jurkat NFAT-bla M1, carbachol, beta-lactamase ratio, 5 h; at 17.2 µM (top of the series)
Results filed as inconclusive are left out. Active and inactive are the calls of the source. Calls follow the shape of the dose curve; as a rule, active = well fitted curve in either direction with a large enough effect (not every such curve was filed as active); inconclusive = small, poorly fitted or top-dose-only effect, or another doubt; inactive = flat fitted curve, though single readings scatter.
Possible outcomes: active, inactive

{"Molecule": "CC(C)NC[C@H](O)c1ccc2ccccc2c1", "Class": "inactive"}
{"Molecule": "CC(C)NC[C@@H](O)COc1ccc(CCOCC2CC2)cc1", "Class": "inactive"}
{"Molecule": "C[C@@H](CCc1ccc(O)cc1)NCCc1ccc(O)c(O)c1", "Class": "inactive"}
{"Molecule": "COc1cc(-c2ccc(N=Nc3ccc4c(S(=O)(=O)O)cc(S(=O)(=O)O)c(N)c4c3O)c(OC)c2)ccc1N=Nc1ccc2c(S(=O)(=O)O)cc(S(=O)(=O)O)c(N)c2c1O", "Class": "inactive"}
{"Molecule": "CC(C)[N+]1(C)[C@@H]2CC[C@H]1CC(OC(=O)[C@@H](CO)c1ccccc1)C2 (some centres not stated)", "Class": "active"}
{"Molecule": "CNC(=O)Oc1ccc2c(c1)[C@@]1(C)CCN(C)[C@@H]1N2C", "Class": "inactive"}
{"Molecule": "CC(=O)[C@H]1[C@H](C#N)C[C@H]2[C@@H]3CC=C4C[C@@H](O)CC[C@]4(C)[C@H]3CC[C@@]21C", "Class": "inactive"}
{"Molecule": "O=C1N=C(O)CN1/N=C\\c1ccc(-c2ccc([N+](=O)[O-])cc2)o1", "Class": "inactive"}
{"Molecule": "CN(C)C/C=C(\\c1ccc(Br)cc1)c1cccnc1", "Class": "inactive"}
{"Molecule": "C=C[C@H](N)CCC(=O)O", "Class": "inactive"}
{"Molecule": "COc1ccccc1N1CCN(C[C@@H](O)COc2cccc3ccccc23)CC1", "Class": "inactive"}
{"Molecule": "CN(C)CCCSC(=N)N", "Class": "inactive"}
{"Molecule": "CC(C)NC[C@@H](O)COc1cccc2[nH]ccc12", "Class": "inactive"}
{"Molecule": "CC(C)NC[C@@H](O)COc1ccc(COCCOC(C)C)cc1", "Class": "inactive"}
{"Molecule": "COc1cc(CNC(=O)CCCC/C=C\\C(C)C)ccc1O", "Class": "inactive"}
{"Molecule": "CCCCCC#CCC#CCC#CCC#CCCCC(=O)O", "Class": "inactive"}
{"Molecule": "CC(C)(C)NC[C@H](O)c1ccc(O)c(CO)c1", "Class": "inactive"}
